So I've got a bunch of compounds here, and I need their IC50 values.
Target: UniProtKB Q07889
Sequence (Q07889 564-1049): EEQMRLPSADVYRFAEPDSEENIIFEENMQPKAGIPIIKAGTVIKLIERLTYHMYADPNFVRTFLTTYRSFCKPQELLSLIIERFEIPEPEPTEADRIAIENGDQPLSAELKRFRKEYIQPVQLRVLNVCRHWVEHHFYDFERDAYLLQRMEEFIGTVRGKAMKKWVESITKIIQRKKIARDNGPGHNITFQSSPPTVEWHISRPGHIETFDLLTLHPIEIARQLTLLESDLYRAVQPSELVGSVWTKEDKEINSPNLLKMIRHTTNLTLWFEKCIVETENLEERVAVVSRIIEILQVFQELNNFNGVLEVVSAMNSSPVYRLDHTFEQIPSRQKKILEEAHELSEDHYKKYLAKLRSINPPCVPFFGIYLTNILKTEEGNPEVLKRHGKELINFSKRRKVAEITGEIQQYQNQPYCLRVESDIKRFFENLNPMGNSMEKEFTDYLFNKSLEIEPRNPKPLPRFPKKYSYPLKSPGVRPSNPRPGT

In: Please give the measured IC50 for this compound: Cc1nc(N[C@H](C)c2cccc(C(F)(F)CO)c2F)c2cc3c(cc2n1)O[C@@H](C)C(=O)N3C (single isomer, unassigned) [Compound 30a]
Out: 1 to 30 nM

In: Please give the measured IC50 for this compound: Cc1nc(N[C@H](C)c2cccc(C(F)(F)CO)c2F)c2cc3c(cc2n1)N(C)C(=O)C31CC1
Out: 1 to 30 nM

In: Please give the measured IC50 for this compound: Cc1nc(N[C@H](C)c2cccc(C(F)(F)C(C)(C)O)c2F)c2cc3c(cc2n1)OC(C(C)C)C(=O)N3C (single isomer, unassigned) [Compound 32b]
Out: 1 to 30 nM

In: Please give the measured IC50 for this compound: Cc1nc(N[C@H](C)c2cccc(C(F)(F)C(C)(C)O)c2F)c2cc3c(cc2n1)nc(C)c(=O)n3C
Out: 1 to 30 nM

In: Please give the measured IC50 for this compound: Cc1nc(N[C@H](C)c2cccc(C(F)(F)CO)c2F)c2cc3c(cc2n1)N(C)C(=O)C31CCCC1
Out: 1 to 30 nM

In: Please give the measured IC50 for this compound: Cc1nc(N[C@H](C)c2cccc(C(F)(F)C(C)(C)O)c2F)c2cc3c(cc2n1)N(C)C(=O)C3(CF)CF
Out: 31 to 130 nM

====

So I've got a bunch of compounds here, and I need their pIC50 values.
Molecular target: protein-protein interaction between hSOS1 and hKRASG12C (Homo sapiens)
Construct: GST-hSOS1, 564-1049aa expressed and purified in-house
Assay: KRAS-SOS1 interaction assay (HTRF)
Settings: GST-hSOS1 564-1049aa, HIS-hKRASG12C, read-out: KRAS-SOS1 Interaction inhibition IC50
pIC50: −log10 of the molar value.

In: Please give the measured pIC50 for this compound: CCN1C(=O)C(C)(C)c2cc3c(N[C@H](C)c4cccc(C(F)(F)CO)c4F)nc(C)nc3cc21
Out: 8.00 to 9.00

In: Please give the measured pIC50 for this compound: CCn1c(=O)n(C)c2cc3nc(C)nc(N[C@H](C)c4cccc(C(F)(F)C(C)(C)O)c4F)c3cc21
Out: 8.00 to 9.00

In: Please give the measured pIC50 for this compound: Cc1nc(N[C@H](C)c2cccc(C(F)(F)CO)c2F)c2cc3c(cc2n1)OC(C)(C)C(=O)N3C
Out: 8.00 to 9.00

In: Please give the measured pIC50 for this compound: CNCC(C)(O)C(F)(F)c1cccc([C@@H](C)Nc2nc(C)nc3cc4c(cc23)N(C)C(=O)C(C)(C)O4)c1F (stereo partly shown)
Out: 8.00 to 9.00

In: Please give the measured pIC50 for this compound: Cc1nc(N[C@H](C)c2cccc(C(F)(F)C(C)(C)O)c2F)c2cc3c(cc2n1)N(C)C(=O)C3(CF)CF
Out: 8.00 to 9.00

In: Please give the measured pIC50 for this compound: Cc1nc(N[C@H](C)c2cccc(C(F)(F)CO)c2F)c2cc3c(cc2n1)O[C@@H](C)C(=O)N3C (single isomer, unassigned) [Compound 30a]
Out: 8.00 to 9.00

In: Please give the measured pIC50 for this compound: Cc1nc(N[C@H](C)c2cccc(C(F)(F)C(C)(C)O)c2F)c2cc3c(cc2n1)n(C)c(=O)n3C
Out: 8.00 to 9.00

In: Please give the measured pIC50 for this compound: CNCC(C)(O)C(F)(F)c1cccc([C@@H](C)Nc2nc(C)nc3cc4c(cc23)N(C)C(=O)C4(C)C)c1F (single isomer, unassigned) [Compound 130a]
Out: 8.00 to 9.00

In: Please give the measured pIC50 for this compound: CO[C@]1(C)C(=O)N(C)c2cc3nc(C)nc(N[C@H](C)c4cccc(C(F)(F)C(C)(C)O)c4F)c3cc21 (racemic) [Compound 96a]
Out: 7.60 to 7.96

In: Please give the measured pIC50 for this compound: Cc1nc(N[C@H](C)c2cccc(C(F)(F)CO)c2F)c2cc3c(cc2n1)OC(C)C(=O)N3C (single isomer, unassigned) [Compound 30b]
Out: 8.00 to 9.00

In: Please give the measured pIC50 for this compound: CCC1(C)C(=O)N(C)c2cc3nc(C)nc(N[C@H](C)c4cccc(C(F)(F)C(C)(C)O)c4F)c3cc21 (single isomer, unassigned) [Compound 93b]
Out: 8.00 to 9.00

In: Please give the measured pIC50 for this compound: Cc1nc(N[C@H](C)c2cccc(C(F)(F)C(C)(C)O)c2F)c2cc3c(cc2n1)N(C)C(C)C(=O)N3C (single isomer, unassigned) [Compound 27b]
Out: 8.00 to 9.00

In: Please give the measured pIC50 for this compound: Cc1nc(N[C@H](C)c2cccc(C(F)(F)[C@](C)(O)CO)c2F)c2cc3c(cc2n1)OC(C)(C)C(=O)N3C (racemic) [Compound 23b]
Out: 8.00 to 9.00

In: Please give the measured pIC50 for this compound: Cc1nc(N[C@H](C)c2cccc(C(F)(F)C(C)(C)O)c2F)c2cc3c(c(C)c2n1)N(C)C(=O)C3(C)C
Out: 8.00 to 9.00

In: Please give the measured pIC50 for this compound: Cc1nc(N[C@H](C)c2cccc(C(F)(F)C(C)(C)O)c2F)c2cc3c(cc2n1)n(C)c(=O)n3CC(F)F
Out: 8.00 to 9.00

In: Please give the measured pIC50 for this compound: CCC1(CC)C(=O)N(C)c2cc3nc(C)nc(N[C@H](C)c4cccc(C(F)(F)C(C)(C)O)c4F)c3cc21
Out: 7.60 to 7.96

In: Please give the measured pIC50 for this compound: COCC[C@]1(C)C(=O)N(C)c2cc3c(N[C@H](C)c4cccc(C(F)(F)C(C)(C)O)c4F)nc(C)nc3cc21 (single isomer, unassigned) [Compound 123a]
Out: 8.00 to 9.00

In: Please give the measured pIC50 for this compound: Cc1nc(N[C@H](C)c2cccc(C(F)(F)CO)c2F)c2cc3c(cc2n1)OC(C)CN3C (single isomer, unassigned) [Compound 36b]
Out: 8.00 to 9.00

In: Please give the measured pIC50 for this compound: COCCN1C(=O)C(C)(C)c2cc3nc(C)nc(N[C@H](C)c4cccc(C(F)(F)C(C)(C)O)c4F)c3cc21
Out: 8.00 to 9.00

In: Please give the measured pIC50 for this compound: Cc1nc(N[C@H](C)c2cccc(C(F)(F)C(C)(C)O)c2F)c2cc3c(cc2n1)CC(=O)N3C
Out: 8.00 to 9.00

In: Please give the measured pIC50 for this compound: Cc1nc(N[C@H](C)c2cccc(C(F)(F)C(C)(C)O)c2F)c2cc3c(cc2n1)OC(C)(C)CN3C
Out: 8.00 to 9.00

In: Please give the measured pIC50 for this compound: COC[C@@]1(C)C(=O)N(C)c2cc3c(N[C@H](C)c4cccc(C(F)(F)C(C)(C)O)c4F)nc(C)nc3cc21 (racemic) [Compound 98b]
Out: 7.60 to 7.96

In: Please give the measured pIC50 for this compound: Cc1nc(N[C@H](C)c2cc(N)cc(C(F)(F)F)c2)c2cc3c(cc2n1)OCC(=O)N3C
Out: 8.00 to 9.00

In: Please give the measured pIC50 for this compound: COCC(C)(O)C(F)(F)c1cccc([C@@H](C)Nc2nc(C)nc3cc4c(cc23)N(C)C(=O)C(C)(C)O4)c1F (single isomer, unassigned) [Compound 53b]
Out: 7.60 to 7.96

In: Please give the measured pIC50 for this compound: CCO[C@]1(C)C(=O)N(C)c2cc3c(N[C@H](C)c4cccc(C(F)(F)C(C)(C)O)c4F)nc(C)nc3cc21 (racemic) [Compound 121b]
Out: 8.00 to 9.00
